- Test system: 565726-208-R1-J5-PDC complex spheroids, growth inhibition;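 note: spheroids exposed to compounds for seven days before readout; 100% = DMSO vehicle control viability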
- Measurement description: Anticancer human tumor 565726-208-R1-J5-PDC patient-derived pancreatic adenocarcinoma cell line growth inhibition [RAS]
- Test settings: second compound 0.316 µM; first compound 0.0316 µM; hits give low values
Reported endpoint: viability, T/C (%)

Compound	Numeric value
Nc1ccn(C2OC(CO)C(O)C2(F)F)c(=O)n1 (configuration not stated) + C=CC(=O)N1CCN(c2nc(OCC3CCCN3C)nc3c(F)c(-c4nc(N)cc(C)c4C(F)(F)F)c(Cl)cc23)C(C)C1	72.7
CC1(O)CCCC1n1c(=O)c(C(F)F)cc2cnc(NC3CCN(S(C)(=O)=O)CC3)nc21 (configuration not stated) + C=CC(=O)N1CCN(c2nc(OCC3CCCN3C)nc3c(F)c(-c4nc(N)cc(C)c4C(F)(F)F)c(Cl)cc23)C(C)C1	111
C=CC(=O)N1CCN(c2nc(OCC3CCCN3C)nc3c(F)c(-c4nc(N)cc(C)c4C(F)(F)F)c(Cl)cc23)C(C)C1 (configuration not stated) + C#Cc1c(F)ccc2cc(O)cc(-c3ncc4c(N5CC6CCC(C5)N6)nc(OCC56CCCN5CC(F)C6)nc4c3F)c12	84.7
CC(=O)OC12COC1CC(O)C1(C)C(=O)C(O)C3=C(C)C(OC(=O)C(O)C(NC(=O)OC(C)(C)C)c4ccccc4)CC(O)(C(OC(=O)c4ccccc4)C21)C3(C)C (configuration not stated) + C=CC(=O)N1CCN(c2nc(OCC3CCCN3C)nc3c(F)c(-c4nc(N)cc(C)c4C(F)(F)F)c(Cl)cc23)C(C)C1	21.1
CCN1CCN(Cc2ccc(Nc3ncc(F)c(-c4cc(F)c5nc(C)n(C(C)C)c5c4)n3)nc2)CC1 + C#Cc1c(F)ccc2cc(O)cc(-c3ncc4c(N5CC6CCC(C5)N6)nc(OCC56CCCN5CC(F)C6)nc4c3F)c12	67.8
O=C(c1ccc(F)c(F)c1Nc1ccc(I)cc1F)N1CC(O)([C@@H]2CCCCN2)C1 + C#Cc1c(F)ccc2cc(O)cc(-c3ncc4c(N5CC6CCC(C5)N6)nc(OCC56CCCN5CC(F)C6)nc4c3F)c12	67.3
CC(=O)OC12COC1CC(O)C1(C)C(=O)C(O)C3=C(C)C(OC(=O)C(O)C(NC(=O)OC(C)(C)C)c4ccccc4)CC(O)(C(OC(=O)c4ccccc4)C21)C3(C)C (configuration not stated) + C#Cc1c(F)ccc2cc(O)cc(-c3ncc4c(N5CC6CCC(C5)N6)nc(OCC56CCCN5CC(F)C6)nc4c3F)c12	18.8
